assay: cytotoxicity in NHA cells; assay type: cell-based; conditions: human, read-out: 50% cytotoxic concentration (CC50)

molecule smiles: O=C1Nc2ccc(I)cc2C1=Cc1cc(Br)c(O)c(Br)c1
CC50: > 20 µM

###

assay: cytotoxicity in SVG-A cells; assay type: cell-based; conditions: human, read-out: 50% cytotoxic concentration (CC50)
measured attribute: CC50

molecule smiles: O=C1Nc2ccc(I)cc2C1=Cc1cc(Br)c(O)c(Br)c1
measured attribute: CC50
experimental value: > 100 µM

// data source = patent US12691097B2
